# Lookup of reported molar extinction coefficient keyed by entry
Test: absorption spectrum (maximum absorption wavelength, molar extinction coefficient)
Type: physicochemical
Measurement kind: molar extinction coefficient

Compound | Value measured
COc1c2c3c4c(c(NCCNCCOCCOCCOCCOCCO)c(=O)c5c(NCCNCCOCCOCCOCCOCCO)cc(OC)c(c6c(OC)cc(O)c(c1=O)c63)c54)C=C(C)C2C(C)=O (stereo not shown) | 31,500 M^−1cm^−1
COCCOCCOCCOCCOCCOCCOCCC(=O)OCCOCCNc1c(O)c2c(=O)cc(OC)c3c4c(OC)cc(=O)c5c(NCCOCCOC(=O)CCOCCOCCOCCOCCOCCOCCOC)c(OC)c6c(c(c1C=C(C)C6)c23)c54 | 30,000 M^−1cm^−1
COCCOCCC(=O)OCCOCCNc1c2c3c4c(c(OC)c(=O)c5c(O)cc(OC)c(c6c(OC)cc(NCCOCCOC(=O)CCOCCOC)c(c1=O)c63)c54)CC(C)=C2 | 32,500 M^−1cm^−1
COc1c(NCC2CCC(C(=O)NCCCC[P+](c3ccccc3)(c3ccccc3)c3ccccc3)CC2)c2c(=O)cc(OC)c3c4c(OC)cc(=O)c5c(O)c(NCC6CCC(C(=O)NCCCC[P+](c7ccccc7)(c7ccccc7)c7ccccc7)CC6)c6c(c(c1CC(C)=C6)c23)c54 (stereo not shown) [HC-13b-NH—C4-PPh3+] | 30,500 M^−1cm^−1
CCNc1c(O)c2c(=O)c(SCCO)c(OC)c3c4c(OC)cc(=O)c5c(NC6CCCC6)c(OC)c6c(c(c1C=C(C)C6C(C)=O)c23)c54 (stereo not shown) [HB-S-44b] | 21,000 M^−1cm^−1
COCCOC(=O)C1(Nc2c(NC3(C(=O)OCCOC)CC3)c3c(=O)cc(OC)c4c5c(OC)cc(=O)c6c(O)c(OC)c7c(c(c2C=C(C)C7)c34)c65)CC1 [HC-35a-PEG1] | 31,000 M^−1cm^−1
COc1c2c3c4c(c(NC(CS)C(=O)O)c(=O)c5c(O)cc(OC)c(c6c(OC)cc(NC(CS)C(=O)O)c(c1=O)c63)c54)C=C(C)C2C(C)=O (stereo not shown) [HB-25d] | 20,500 M^−1cm^−1
CCNNc1c(O)c2c(=O)cc(OC)c3c4c(OC)cc(=O)c5c(NNCC)c(OC)c6c(c(c1C=C(C)C6C(C)=O)c23)c54 (stereo not shown) [HB-36b] | 31,500 M^−1cm^−1
COCCOCCOCCOCCOCCOCCOCCOCCOCCOCCOCCOCCOC(=O)CCCCCNc1c2c3c4c(c(OC)c(=O)c5c(NCCCCCC(=O)OCCOCCOCCOCCOCCOCCOCCOCCOCCOCCOCCOCCOC)cc(OC)c(c6c(OC)cc(O)c(c1=O)c63)c54)CC(C)=C2 | 31,500 M^−1cm^−1
CCCCCCNc1c(NCCCCCC)c2c(=O)cc(OC)c3c4c(OC)cc(=O)c5c(O)c(OC)c6c(c(c1C=C(C)C6)c23)c54 [HC-34a] | 31,500 M^−1cm^−1
